experiment: CCTE_Mundy_HCI_Cortical_Synap_Neur_Matur_BPCount: CCTE's Synaptogenesis and Neurite Maturation Assay in rat cortical cells for Branch Point Count, Mundy Lab (AID 2284211)
Activity calls are given as the source filed them. How the source made its calls: active means hit-call score of the fitted dose curve at least 0.9, where 1 is the maximum; inactive means score below 0.9.
Observed property: AC50

Would you please look over these solved cases?
CC(C)COC(=O)c1ccccc1C(=O)OCC(C)C: 76.7 µM (active)
CNC(=O)Oc1cccc2c1OC(C)(C)C2: inactive
Nc1cc(Cl)cc(C(=O)O)c1Cl: inactive
COC(=O)Nc1nc2ccccc2[nH]1: 4.14 µM (active)

Now for another entry.
Query :: Any idea what AC50 was measured for ClC1=C(Cl)C2(Cl)C3C(Cl)C=CC3C1(Cl)C2(Cl)Cl (stereo not given) ?
Result :: 13.3 µM (active)
